- TEST_SYSTEM: Plasma Kallikrein (Homo sapiens)
- Construct: FXIIa converts plasma prekallikrein (PK) to plasma kallikrein (PKa)
- TEST_PROTOCOL: Related protease inhibition: Plasma Kallikrein (fluorogenic substrate at Km)
- DETAILS: class symbols per Table 18, read-out: IC50 (human PKal)
- Protocol: In vitro inhibition of related proteases was determined using an IC50 assay based on standard literature methods (see e.g. Shori et al., Biochem. Pharmacol., 1992, 43, 1209; Bouckaert et al., European Journal of Medicinal Chemistry 110 (2016) 181). […] Protease activity was measured by monitoring the accumulation of liberated fluorescence from the substrate over 5 min at 25° C. The linear rate of fluorescence increase per minute was expressed as percentage (%) activity. […]
pIC50: −log10 of the molar value.
Overview of reported pIC50 across a group of compounds:

COMPOUND	pIC50
Nc1nccc2c(NCC34CC(COc5ccn6cnnc6c5)(CO3)C4)cccc12 [Example 6629]	< 4.40

We now examine a further compound.
## Input Requested read-out: pIC50. Entry: Nc1nccc2c(CCC34CC(COc5ccn6ccnc6c5)(C3)C4)cccc12 [Example 1014]
## Output < 4.40

---

pIC50 values, listed per item
- TEST_SYSTEM: KLK1 (Homo sapiens)
- Sequence (P06870 25-262): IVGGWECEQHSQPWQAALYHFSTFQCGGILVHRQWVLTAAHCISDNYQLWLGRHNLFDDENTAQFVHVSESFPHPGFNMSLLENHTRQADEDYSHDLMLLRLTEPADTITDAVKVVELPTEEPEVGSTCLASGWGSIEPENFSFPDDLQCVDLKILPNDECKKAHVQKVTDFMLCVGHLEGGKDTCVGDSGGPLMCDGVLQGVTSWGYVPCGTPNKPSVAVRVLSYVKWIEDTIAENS
pIC50: −log10 of the molar value.

Some solved entries appear below for comparison.
MOLECULE	TEST_SYSTEM	MEASURED_QUANTITY	RESULT
Nc1nccc2c(NCC34CC(COc5cn6ccnc6cn5)(CO3)C4)cccc12	KLK1 (Homo sapiens)	pIC50	5.00 to 5.52
Nc1nccc2c(NCC34CC(COc5ccc6nccn6c5)(CO3)C4)cccc12	KLK1 (Homo sapiens)	pIC50	5.00 to 5.52
Cc1cc(OCC23CN(C(=O)NCc4ccccc4)C(CNc4cccc5c(N)nccc45)(C2)C3)cc(=O)n1C	KLK1 (Homo sapiens)	pIC50	5.00 to 5.52
Nc1nccc2c(NCC34CC(COc5ccc6nnc(C(F)F)n6n5)(CO3)C4)cccc12	KLK1 (Homo sapiens)	pIC50	5.00 to 5.52
Cc1cc2c(NCC34CC(COc5ccn6ccnc6c5)(C3)C4)ccnc2[nH]1	KLK1 (Homo sapiens)	pIC50	< 4.40

Now for another entry.
## Input Fill blank: measured pIC50 of the molecule `Nc1nccc2c(NCC34CC(COc5ccn6cc(C(F)F)nc6c5)(CO3)C4)cccc12` is ____.
## Output 5.00 to 5.52

---

- TEST_SYSTEM: Plasma Kallikrein (Homo sapiens, UniProt P03952)
- Construct: FXIIa converts plasma prekallikrein (PK) to plasma kallikrein (PKa)
- Sequence (P03952 391-638 limits assumed): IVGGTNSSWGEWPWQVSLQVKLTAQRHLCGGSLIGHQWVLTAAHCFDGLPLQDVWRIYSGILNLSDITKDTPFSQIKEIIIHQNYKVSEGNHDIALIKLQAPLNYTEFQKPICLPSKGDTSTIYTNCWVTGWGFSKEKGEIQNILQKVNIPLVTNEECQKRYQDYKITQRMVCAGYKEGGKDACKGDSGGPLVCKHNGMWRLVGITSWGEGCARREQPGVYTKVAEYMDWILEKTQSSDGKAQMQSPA
- Sequence (P03952 20-390 partner limits assumed): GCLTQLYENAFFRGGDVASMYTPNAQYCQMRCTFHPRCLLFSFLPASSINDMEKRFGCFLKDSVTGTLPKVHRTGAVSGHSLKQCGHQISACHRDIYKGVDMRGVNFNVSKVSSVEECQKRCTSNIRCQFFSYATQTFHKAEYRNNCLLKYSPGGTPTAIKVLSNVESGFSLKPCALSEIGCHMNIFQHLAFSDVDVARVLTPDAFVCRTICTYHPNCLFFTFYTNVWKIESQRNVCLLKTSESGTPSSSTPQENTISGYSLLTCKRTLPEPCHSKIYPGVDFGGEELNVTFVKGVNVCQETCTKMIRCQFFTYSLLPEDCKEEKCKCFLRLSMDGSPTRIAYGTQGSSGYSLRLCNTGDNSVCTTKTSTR
- TEST_PROTOCOL: Related protease inhibition: Plasma Kallikrein (fluorogenic substrate at Km)
- Type: biochemical
- DETAILS: class symbols per Table 18, read-out: IC50 (human PKal)
- Protocol: In vitro inhibition of related proteases was determined using an IC50 assay based on standard literature methods (see e.g. Shori et al., Biochem. Pharmacol., 1992, 43, 1209; Bouckaert et al., European Journal of Medicinal Chemistry 110 (2016) 181). […] Protease activity was measured by monitoring the accumulation of liberated fluorescence from the substrate over 5 min at 25° C. The linear rate of fluorescence increase per minute was expressed as percentage (%) activity. […]
Items are presented alongside their recorded IC50.

Solved entries:
COMPOUND_STRING	IC50
CC1(C)OC2(CNc3cccc4c(N)nccc34)CC1(COc1ccc3nccn3c1)C2	> 40 µM
Cn1ccc(OCC23CCOC(CNc4cccc5c(N)nccc45)(C2)C3)nc1=O	> 40 µM

## Input What does the data say about its IC50? Entry: `Cc1cc(OCC23CN(C(=O)NCc4ccccc4)C(CNc4cccc5c(N)nccc45)(C2)C3)cc(=O)n1C`
## Output 3 to 10 µM

## Input Query: IC50; subject: `Nc1nccc2c(NCC34CC(COc5ccc6c(c5)CNC6=O)(CO3)C4)cccc12`
## Output > 40 µM
